Target: T1, recombinant human VEGF121 (human, UniProt P15692-9 27-147)
T1 construct: also called rhVEGF121; hVEGF121
T1 sequence (looked up): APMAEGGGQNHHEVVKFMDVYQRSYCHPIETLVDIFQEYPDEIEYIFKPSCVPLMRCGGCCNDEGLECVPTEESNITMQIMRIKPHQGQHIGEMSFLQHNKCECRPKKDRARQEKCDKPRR
Assay: binding ELISA, coated rhVEGF121
pEC50: −log10 of the molar value.
measured attribute: pEC50

binder	measured attribute	reported
VEGFBII23B04 (VHH, also called VEGFBII23B4; VEGFBII23B04 (wt)) VHH: EVQLVESGGGLVQTGDSLRLSCEVSGRTFSSYSMGWFRQAQGKEREFVVAISKGGYKYDSVSLEGRFTISKDNAKNTVYLQINSLKPEDTAVYYCASSRAYGSSRLRLADTYEYWGQGTQVTVSS	pEC50	9.29
VEGFBII24C04 (VHH, also called VEGFBII24C4) VHH: EVQLVESGGGLVQPGDSLKLSCVASGRTSSSYSMGWFRQAQGKEREFVVAISSGGYIYDSVSLQGRFTISRDNTKNTVYLQTPSLKPEDTAVYYCAASRAYGSSRLRLADTYDYWGQGTQVTVSS	pEC50	9.10

Numbers sourced from patent US20170247475A1.
